# System: DU-145 prostate
# method: NCI tumour cell line growth inhibition, 48 h

- compound: "Cc1c(N(C)C)ccc2c(=O)c3cccc(CC(=O)O)c3oc12"
  TGI: "> 100 µM"
- compound: "C=C1CC(C#N)(C#N)[C@H]2C3CCCC3C[C@@H]12 (some centres undefined) (tested in a mixture with another compound)"
  TGI: "> 100 µM"
- compound: "CC(=O)ON1CCCC(P(=O)(OCCSC(=O)C(C)(C)C)OCCSC(=O)C(C)(C)C)C1=O (centres undefined)"
  TGI: "> 100 µM"
- compound: "COc1ccc2/c(=C/c3ccc(N(C)C)cc3)c3cc(-c4ccccc4)[n+](C)n3c2c1"
  TGI: "1.77 µM"
- compound: "Cc1nn(-c2ccccc2)c2c1C(c1cc3ccccc3nc1Cl)NC(=O)N2 (centres undefined)"
  TGI: "> 100 µM"
- compound: "CCOC(=O)c1c(-c2ccc(O)c(OC)c2)c(C#N)c(=S)n(C2OC(CO)C(O)C(O)C2O)c1-c1ccccc1 (centres undefined)"
  TGI: "> 100 µM"
- compound: "O=C(CCn1ccnc1[N+](=O)[O-])NCCCn1ccnc1[N+](=O)[O-]"
  TGI: "> 100 µM"
- compound: "COc1ccc(-c2nc(SCC(=O)NNC(=S)Nc3ccccc3)[nH]c2-c2ccc(OC)cc2)cc1"
  TGI: "> 100 µM"
- compound: "CC1(C)CC(=O)C(C(CC(c2ccccc2)c2cc3c(cc2O)OCO3)C2=C(O)CC(C)(C)CC2=O)=C(O)C1 (centres undefined)"
  TGI: "> 10 µM"
